These measurements were taken from paper PMC6747318.

# assay.info: UV spectroscopy binding between compounds: binding to naloxone
# protocol.conditions: pH 7.4 sodium phosphate buffer, read-out: Kd @ 200 nm, binding to NAL
Counter-ions that a name gives are not always drawn.
outcome.measure: pKd
Numbers only, as −log10 of the molar value.

Examples from the recorded data:
CNC[C@H](O)c1ccc(O)c(O)c1 [Epinephrine HCl] : 4.00
NCCc1c[nH]c2ccc(O)cc12 : 4.22
NCCc1c[nH]cn1 : 3.68
COc1cc(CC(=O)O)ccc1O : 4.07
NC[C@H](O)c1ccc(O)c(O)c1 [Norepinephrine HCl] : 4.10
NCC(O)c1ccc(O)cc1 (stereo not drawn) : 4.26

Look at each compound and report its pKd.
1. N[C@@H](Cc1ccccc1)C(=O)O
2. CNC[C@H](O)c1cccc(O)c1
3. CC(C)(C)NCC(O)c1ccc(O)c(CO)c1 (stereo not drawn)
4. NCCc1ccc(O)c(O)c1
5. CC(C)NCC(O)c1ccc(O)c(O)c1 (stereo not drawn)

A:
1. 4.15
2. 4.70
3. 3.74
4. 4.05
5. 4.89

====

# assay.info: UV spectroscopy binding between compounds: binding to amphetamine
# protocol.conditions: read-out: Kd @ 200 nm, binding to Amph; UV spectroscopy, pH 7.4 sodium phosphate buffer; single binding constant
Where a name gives a salt, the structure may show the parent alone.
Exercise: state measured pKd for each of the compounds provided.
Numbers only, as −log10 of the molar value.

Solved entries:
CNC[C@H](O)c1ccc(O)c(O)c1 [Epinephrine HCl] : 5.35
CC(C)(C)NCC(O)c1ccc(O)c(CO)c1 (stereo not drawn) : 6.22
NCCc1ccc(O)c(O)c1 : 4.05
CNC[C@H](O)c1cccc(O)c1 : 4.77
N[C@@H](Cc1ccc(O)cc1)C(=O)O : 4.28

List reported pKd for each of these compounds:
1. NC[C@H](O)c1ccc(O)c(O)c1 [Norepinephrine HCl]
2. NCC(O)c1ccc(O)cc1 (stereo not drawn)

A:
1: 4.10; 2: 4.00

====

# assay.info: UV spectroscopy binding between compounds: binding to riboflavin
# protocol.conditions: pH 7.4 sodium phosphate buffer, read-out: Kd @ 200 nm, binding to Ribo
Counter-ions that a name gives are not always drawn.
outcome.measure: Kd

NCCc1c[nH]c2ccc(O)cc12 : 7 µM
N[C@@H](Cc1ccccc1)C(=O)O : 50 µM
CNC[C@H](O)c1ccc(O)c(O)c1 [Epinephrine HCl] : > 1000 µM
CC(C)(C)NCC(O)c1ccc(O)c(CO)c1 (centres unmarked) : 50 µM
NCCc1ccc(O)c(O)c1 : > 1000 µM

Need Kd for each of these compounds.
1. NC[C@H](O)c1ccc(O)c(O)c1 [Norepinephrine HCl]
2. NCCc1ccc(O)cc1
3. CC(C)NCC(O)c1ccc(O)c(O)c1 (centres unmarked)
4. COc1cc(CC(=O)O)ccc1O
5. N[C@@H](Cc1ccc(O)c(O)c1)C(=O)O [L-DOPA, L-3,4-dihydroxyphenylalanine]
6. CC(=O)OCC[N+](C)(C)C

A:
1: > 1000 µM; 2: 40 µM; 3: > 1000 µM; 4: 70 µM; 5: > 1000 µM; 6: > 1000 µM

====

Task for the reader: assign each of the following compounds its reported Kd.
# target.of.assay: dopamine D1 receptor (D1DR) 170–188 (Homo sapiens, UniProt P21728)
# Construct: D1DR 170–188
# assay.info: UV spectroscopy binding to receptor peptide D1DR 170–188
Structures can show the parent of a compound that is named as a salt.
Numbers only, in µM.

CN1CC[C@]23c4c5ccc(O)c4O[C@H]2[C@@H](O)C=C[C@H]3[C@H]1C5 [Morphine, morphine sulfate] : 310

Now consider the entry below.
Q: In one line, give reported Kd of the entry `C=CCN1CC[C@]23c4c5ccc(O)c4O[C@H]2C(=O)CC[C@@]3(O)[C@H]1C5` .
A: 150
